- Test system: RXRa DBDmut IVT, anti-RXR (DBD mutation: RXRa K156A/R161A, NR concentration 90 nM)
- procedure details: PBM binding z-score (relative to random genomic background probes); higher = stronger binding; sequences stand for … in GC…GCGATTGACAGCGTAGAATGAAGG
Reported PBM binding z-score values are given for each entry in this list.

{"chain": "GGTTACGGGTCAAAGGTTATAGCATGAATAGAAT", "PBM binding z-score": 1.89}
{"chain": "TTACCAAGGTGAAAAGTCGTTGATGCACGCCTTG", "PBM binding z-score": -0.185}
{"chain": "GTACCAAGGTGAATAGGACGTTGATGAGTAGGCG", "PBM binding z-score": -0.489}
{"chain": "GATCCAGGGTCAAGGCCAGAGTACGCGTATTGAT", "PBM binding z-score": 2.45}
{"chain": "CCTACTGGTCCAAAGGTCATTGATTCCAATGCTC", "PBM binding z-score": 2.23}
{"chain": "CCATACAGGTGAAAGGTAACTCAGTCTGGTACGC", "PBM binding z-score": 0.261}
{"chain": "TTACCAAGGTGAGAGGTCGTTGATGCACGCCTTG", "PBM binding z-score": 0.404}
{"chain": "TCTTGTAGTTCAAGCAGGTTAAGAAAGCCTGAGT", "PBM binding z-score": 2.37}
{"chain": "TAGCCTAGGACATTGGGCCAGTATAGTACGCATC", "PBM binding z-score": -0.671}
{"chain": "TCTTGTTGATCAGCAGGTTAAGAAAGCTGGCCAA", "PBM binding z-score": 0.635}
{"chain": "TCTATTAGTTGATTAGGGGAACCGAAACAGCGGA", "PBM binding z-score": 1.67}
{"chain": "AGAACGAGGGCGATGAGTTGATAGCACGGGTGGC", "PBM binding z-score": 1.06}
{"chain": "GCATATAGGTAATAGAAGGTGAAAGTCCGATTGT", "PBM binding z-score": 0.488}
{"chain": "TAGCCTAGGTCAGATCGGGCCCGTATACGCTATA", "PBM binding z-score": -0.297}
{"chain": "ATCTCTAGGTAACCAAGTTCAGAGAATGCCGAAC", "PBM binding z-score": 0.821}
{"chain": "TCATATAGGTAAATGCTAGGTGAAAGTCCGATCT", "PBM binding z-score": 1.42}
{"chain": "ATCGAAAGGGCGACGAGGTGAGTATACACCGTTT", "PBM binding z-score": -0.425}
{"chain": "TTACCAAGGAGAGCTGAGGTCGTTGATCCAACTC", "PBM binding z-score": -0.0158}
{"chain": "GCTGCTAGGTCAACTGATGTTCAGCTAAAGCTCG", "PBM binding z-score": 1.81}
{"chain": "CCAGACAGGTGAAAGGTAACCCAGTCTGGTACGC", "PBM binding z-score": -0.455}
{"chain": "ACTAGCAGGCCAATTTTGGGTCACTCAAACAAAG", "PBM binding z-score": -0.264}
{"chain": "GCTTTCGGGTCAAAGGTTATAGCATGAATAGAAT", "PBM binding z-score": 2.52}
{"chain": "GCTTACGGGTCAAAGGTTATAGCTTGAATAGAAT", "PBM binding z-score": 2.37}
{"chain": "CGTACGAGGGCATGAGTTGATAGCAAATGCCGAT", "PBM binding z-score": 2.36}
{"chain": "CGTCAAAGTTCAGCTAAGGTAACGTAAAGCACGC", "PBM binding z-score": 3.46}
{"chain": "CATCCAAGGTCAGCAGGTCAGTGAAAGCGACGTG", "PBM binding z-score": 2.7}

* * *

- Test system: PPARg:RXRa 270nM:90nM, anti-RXR (NR concentration 270 nM, RXRa partner concentration 90 nM)
- procedure details: PBM binding z-score (relative to random genomic background probes); higher = stronger binding; sequences stand for … in GC…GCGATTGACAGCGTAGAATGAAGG

{"chain": "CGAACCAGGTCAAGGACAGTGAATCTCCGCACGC", "PBM binding z-score": 4.26}
{"chain": "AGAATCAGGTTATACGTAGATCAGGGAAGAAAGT", "PBM binding z-score": 1.38}
{"chain": "ATATGTAGGTTATCGCGTCATTCAGTTTGCGCAT", "PBM binding z-score": 3.94}
{"chain": "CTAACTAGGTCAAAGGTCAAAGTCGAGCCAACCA", "PBM binding z-score": 11.2}
{"chain": "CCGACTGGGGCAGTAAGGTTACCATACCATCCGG", "PBM binding z-score": 1.17}
{"chain": "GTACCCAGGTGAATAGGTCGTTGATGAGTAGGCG", "PBM binding z-score": 1.25}
{"chain": "ATCGAAAGGTCGTGAGGTGAGGATACAGAAAGGC", "PBM binding z-score": 4.73}
{"chain": "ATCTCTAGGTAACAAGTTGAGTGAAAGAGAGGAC", "PBM binding z-score": 1.76}
{"chain": "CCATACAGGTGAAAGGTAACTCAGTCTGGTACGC", "PBM binding z-score": 7.64}
{"chain": "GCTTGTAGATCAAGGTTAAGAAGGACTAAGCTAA", "PBM binding z-score": 2.08}
{"chain": "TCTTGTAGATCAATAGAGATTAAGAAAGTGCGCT", "PBM binding z-score": 1.34}
{"chain": "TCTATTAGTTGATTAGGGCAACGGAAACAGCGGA", "PBM binding z-score": 1.99}

* * *

- Test system: LXRb:RXRa (NR concentration 270 nM, RXRa partner concentration 90 nM)
- procedure details: PBM binding z-score (relative to random genomic background probes); higher = stronger binding; sequences stand for … in GC…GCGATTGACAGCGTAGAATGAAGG

{"chain": "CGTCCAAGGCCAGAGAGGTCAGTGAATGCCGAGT", "PBM binding z-score": 1.74}
{"chain": "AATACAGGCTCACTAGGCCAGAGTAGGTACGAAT", "PBM binding z-score": -0.839}
{"chain": "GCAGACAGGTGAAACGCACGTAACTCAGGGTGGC", "PBM binding z-score": -0.277}
{"chain": "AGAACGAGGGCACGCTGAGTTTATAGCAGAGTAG", "PBM binding z-score": 0.283}
{"chain": "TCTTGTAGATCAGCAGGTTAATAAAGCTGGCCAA", "PBM binding z-score": 0.223}
{"chain": "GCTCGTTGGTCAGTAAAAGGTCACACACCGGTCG", "PBM binding z-score": 4.22}

* * *

Reported PBM binding z-score values are given for each entry in this list.
- Test system: PPARg:RXRa 30nM:10nM, anti-RXR (NR concentration 30 nM, RXRa partner concentration 10 nM)
- procedure details: PBM binding z-score (relative to random genomic background probes); higher = stronger binding; sequences stand for … in GC…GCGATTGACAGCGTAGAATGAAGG
measurement kind: PBM binding z-score

{"chain": "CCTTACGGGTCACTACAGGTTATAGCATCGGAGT", "reported measurement": 1.46}
{"chain": "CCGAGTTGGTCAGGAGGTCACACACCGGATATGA", "reported measurement": 0.983}
{"chain": "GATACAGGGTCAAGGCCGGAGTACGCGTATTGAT", "reported measurement": 1.81}
{"chain": "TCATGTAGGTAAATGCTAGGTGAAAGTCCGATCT", "reported measurement": 2.88}
{"chain": "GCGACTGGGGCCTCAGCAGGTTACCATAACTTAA", "reported measurement": -0.842}
{"chain": "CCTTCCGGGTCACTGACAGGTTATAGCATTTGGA", "reported measurement": 1.75}
{"chain": "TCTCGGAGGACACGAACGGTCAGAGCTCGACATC", "reported measurement": 1.74}
{"chain": "CGTCCAAGGTCAATGCTAGGTCAGAGAAAGCATT", "reported measurement": 1.59}
{"chain": "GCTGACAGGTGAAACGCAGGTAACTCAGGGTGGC", "reported measurement": -0.779}
{"chain": "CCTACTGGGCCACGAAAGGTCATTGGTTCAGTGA", "reported measurement": 2.43}
{"chain": "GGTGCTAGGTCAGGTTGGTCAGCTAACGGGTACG", "reported measurement": 0.315}
{"chain": "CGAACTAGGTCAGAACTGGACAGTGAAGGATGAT", "reported measurement": 1.77}
{"chain": "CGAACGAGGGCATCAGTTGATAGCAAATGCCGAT", "reported measurement": -0.0649}
{"chain": "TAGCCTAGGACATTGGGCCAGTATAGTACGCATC", "reported measurement": -0.241}
{"chain": "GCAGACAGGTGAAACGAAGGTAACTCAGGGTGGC", "reported measurement": -0.263}
{"chain": "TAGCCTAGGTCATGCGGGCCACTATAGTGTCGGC", "reported measurement": 0.295}
{"chain": "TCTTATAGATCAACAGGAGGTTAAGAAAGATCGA", "reported measurement": 3.48}
{"chain": "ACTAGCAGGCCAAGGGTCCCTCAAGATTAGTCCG", "reported measurement": 1.73}
{"chain": "CGTCCATGGTCATAGGAGGTCAGTGAAGACAGAT", "reported measurement": -0.128}
{"chain": "TAGCCTAGGTCATGGTCCAGTATACCACGCGAAC", "reported measurement": 0.835}
{"chain": "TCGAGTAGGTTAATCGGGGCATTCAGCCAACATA", "reported measurement": 1.04}
{"chain": "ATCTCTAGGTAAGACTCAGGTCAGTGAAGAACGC", "reported measurement": 0.135}
{"chain": "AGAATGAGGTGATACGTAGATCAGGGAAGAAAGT", "reported measurement": 0.448}
{"chain": "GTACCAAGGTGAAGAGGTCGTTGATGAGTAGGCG", "reported measurement": 0.544}
{"chain": "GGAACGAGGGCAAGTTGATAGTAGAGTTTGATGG", "reported measurement": 0.216}
{"chain": "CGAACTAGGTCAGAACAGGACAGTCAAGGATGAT", "reported measurement": 1.74}
